biological target: Human recombinant DHX9 protein (Homo sapiens (Human)); test: DHX9 ATPase assay (ADP-Glo); assay type: biochemical
OUTCOME_MEASURE: DHX9 Biochemical Max Inhibition (%)
Numbers only here, please. The scale is %.

Some entries whose results are on file:
COMPOUND | OUTCOME_MEASURE | OBSERVED_VALUE
Cc1cccnc1-c1cc(C(=O)Nc2cc(Br)cc(NS(C)(=O)=O)c2)cn1C | DHX9 Biochemical Max Inhibition | 66.7
CS(=O)(=O)Nc1cc(Cl)cc(NC(=O)c2cnn(-c3ncc(F)cc3OCc3cccc(F)c3)c2)c1 | DHX9 Biochemical Max Inhibition | 72.3
Cc1cc(C(=O)Nc2cc(Cl)cc(NS(C)(=O)=O)c2)cn1-c1ccc(Cl)cn1 | DHX9 Biochemical Max Inhibition | 82.3
CS(=O)(=O)Nc1cc(Br)cc(NC(=O)c2cnn(-c3ccccc3C(O)C(F)(F)F)c2)c1 (stereo not drawn) | DHX9 Biochemical Max Inhibition | 49.5
Cn1cc(C(=O)Nc2cc(Cl)cc(NS(C)(=O)=O)c2)cc1-c1ccc(N2CC3(COC3)C2)cn1 | DHX9 Biochemical Max Inhibition | 72.5
CS(=O)(=O)Nc1cc(Cl)cc(NC(=O)c2cn(-c3ccccc3)cn2)c1 | DHX9 Biochemical Max Inhibition | 48.3

Ask: May I ask what DHX9 Biochemical Max Inhibition has been recorded for CS(=O)(=O)Nc1cc(Cl)cc(NC(=O)c2cnn(-c3ncccc3OCc3cccc(Br)c3)c2)c1 ?
Result: 66.3

---

molecular target: Human recombinant DHX9 protein (Homo sapiens (Human), UniProt Q08211); experiment: DHX9 ATPase assay (ADP-Glo); format: biochemical
Sequence (Q08211 whole entry): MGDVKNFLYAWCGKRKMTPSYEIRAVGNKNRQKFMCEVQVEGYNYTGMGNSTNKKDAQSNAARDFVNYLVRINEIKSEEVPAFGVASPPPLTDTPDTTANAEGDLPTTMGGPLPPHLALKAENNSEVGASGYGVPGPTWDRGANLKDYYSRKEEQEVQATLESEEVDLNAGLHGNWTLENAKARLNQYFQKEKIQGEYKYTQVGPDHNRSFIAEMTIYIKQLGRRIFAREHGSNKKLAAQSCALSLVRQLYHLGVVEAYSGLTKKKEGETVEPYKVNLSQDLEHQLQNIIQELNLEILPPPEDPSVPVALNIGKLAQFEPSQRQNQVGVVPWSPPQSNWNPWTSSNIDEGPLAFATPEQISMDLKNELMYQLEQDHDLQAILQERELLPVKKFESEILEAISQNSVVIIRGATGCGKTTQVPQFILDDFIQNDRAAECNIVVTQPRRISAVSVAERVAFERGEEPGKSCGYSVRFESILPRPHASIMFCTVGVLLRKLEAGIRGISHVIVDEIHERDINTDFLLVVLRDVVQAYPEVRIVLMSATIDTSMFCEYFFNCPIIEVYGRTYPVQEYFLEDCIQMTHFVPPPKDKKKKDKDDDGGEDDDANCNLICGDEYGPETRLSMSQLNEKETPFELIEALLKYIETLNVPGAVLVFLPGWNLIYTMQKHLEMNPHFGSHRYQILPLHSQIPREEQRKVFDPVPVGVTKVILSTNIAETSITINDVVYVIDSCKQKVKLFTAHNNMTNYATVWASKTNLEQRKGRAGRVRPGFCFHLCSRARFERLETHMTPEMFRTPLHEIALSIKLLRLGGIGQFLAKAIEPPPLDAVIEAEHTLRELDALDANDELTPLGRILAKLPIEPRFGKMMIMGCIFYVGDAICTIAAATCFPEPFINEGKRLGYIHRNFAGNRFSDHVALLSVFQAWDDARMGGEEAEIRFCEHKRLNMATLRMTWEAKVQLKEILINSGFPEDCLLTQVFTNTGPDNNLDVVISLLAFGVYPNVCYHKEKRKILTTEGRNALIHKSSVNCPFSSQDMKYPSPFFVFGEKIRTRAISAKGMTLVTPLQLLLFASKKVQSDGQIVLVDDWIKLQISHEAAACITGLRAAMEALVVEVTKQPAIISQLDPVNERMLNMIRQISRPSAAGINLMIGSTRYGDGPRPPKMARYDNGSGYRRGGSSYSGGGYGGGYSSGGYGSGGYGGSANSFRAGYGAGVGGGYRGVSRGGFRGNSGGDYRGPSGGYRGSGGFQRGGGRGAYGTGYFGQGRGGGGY
Examples of molecules with documented DHX9 Biochemical Max Inhibition follow.
# respond with the number and nothing more

MOLECULE | OBSERVED_VALUE
CS(=O)(=O)Nc1cc(Cl)cc(NC(=O)c2cnn(-c3ccccc3COc3cncc(F)c3)c2)c1 [Example 428] | 68.9
Cn1cc(C(=O)Nc2cc(Cl)cc(NS(C)(=O)=O)c2)cc1-c1ncc(N2CC(F)C2)cc1F [Example 466] | 82.2
Cc1sc(C(=O)Nc2cc(Cl)cc(NS(C)(=O)=O)c2)cc1N1C(=O)N(c2ccccn2)C(C)(C)C1=O [Example 685] | 64.3

Then there is this molecule:
Ask: May I ask what DHX9 Biochemical Max Inhibition has been recorded for CS(=O)(=O)Nc1cc(Cl)cc(NC(=O)c2cnn(-c3c(F)cccc3OCc3cncc(F)c3)c2)c1 [Example 718] ?
Result: 72.7

---

Examples of compounds with documented DHX9 Biochemical Max Inhibition follow.
biological target: Human recombinant DHX9 protein (Homo sapiens (Human), UniProt Q08211); experiment: DHX9 ATPase assay (ADP-Glo); format: biochemical
# respond with the number and nothing more

Some entries whose results are on file:
SMILES_REPR | TGT | DHX9 Biochemical Max Inhibition
Cc1cc(F)cc(C#N)c1-c1cc(C(=O)Nc2cc(Cl)cc(NS(C)(=O)=O)c2)cn1C | Human recombinant DHX9 protein (Homo sapiens (Human), UniProt Q08211) | 50.7
CCS(=O)(=O)Nc1cc(Cl)cc(NC(=O)c2cc(-c3ncc(F)cc3F)n(C)c2)c1 | Human recombinant DHX9 protein (Homo sapiens (Human), UniProt Q08211) | 60.2

Ask: May I ask what DHX9 Biochemical Max Inhibition has been recorded for Cc1sc(C(=O)Nc2cc(Cl)cc(NS(C)(=O)=O)c2)cc1-c1ncc(N2CCC(C(F)(F)F)CC2)cc1F ?
Result: 62.1
